// data source = patent US6858638B2

# target_system: human FAK (Homo sapiens, UniProt Q05397)
# Construct: The complete cDNA of human FAK; made in house; host or cells: baculovirus expression system (vector pFastBac HTc)
# Sequence (Q05397 whole entry): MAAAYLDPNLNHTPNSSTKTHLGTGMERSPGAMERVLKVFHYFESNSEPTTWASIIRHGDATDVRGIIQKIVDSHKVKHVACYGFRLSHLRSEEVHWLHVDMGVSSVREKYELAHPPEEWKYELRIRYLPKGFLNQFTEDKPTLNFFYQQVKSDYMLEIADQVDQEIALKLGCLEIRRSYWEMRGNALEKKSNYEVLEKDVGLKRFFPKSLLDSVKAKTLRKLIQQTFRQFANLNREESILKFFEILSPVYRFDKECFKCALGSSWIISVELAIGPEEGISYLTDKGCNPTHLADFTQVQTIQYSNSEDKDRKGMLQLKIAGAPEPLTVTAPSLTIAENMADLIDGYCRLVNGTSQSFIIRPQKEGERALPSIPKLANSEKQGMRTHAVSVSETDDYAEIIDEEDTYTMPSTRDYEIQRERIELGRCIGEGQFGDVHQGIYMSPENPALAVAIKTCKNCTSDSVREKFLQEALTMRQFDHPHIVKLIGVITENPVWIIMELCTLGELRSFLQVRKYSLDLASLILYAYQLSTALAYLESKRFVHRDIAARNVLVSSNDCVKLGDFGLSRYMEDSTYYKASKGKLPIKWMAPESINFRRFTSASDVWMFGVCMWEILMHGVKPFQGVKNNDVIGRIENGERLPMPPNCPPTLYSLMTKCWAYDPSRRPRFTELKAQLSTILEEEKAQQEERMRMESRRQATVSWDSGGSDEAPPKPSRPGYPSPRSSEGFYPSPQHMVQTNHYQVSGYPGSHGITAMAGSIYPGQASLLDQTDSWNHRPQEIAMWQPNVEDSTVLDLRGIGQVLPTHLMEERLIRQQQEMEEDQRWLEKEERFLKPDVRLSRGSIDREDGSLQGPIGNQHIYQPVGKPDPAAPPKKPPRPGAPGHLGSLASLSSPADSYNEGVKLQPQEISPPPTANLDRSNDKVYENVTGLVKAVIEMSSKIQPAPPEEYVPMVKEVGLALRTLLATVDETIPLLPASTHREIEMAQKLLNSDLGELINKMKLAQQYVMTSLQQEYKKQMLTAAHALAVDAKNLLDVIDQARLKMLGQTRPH
# experimental_details: FAK autophosphorylation inhibition, time resolved fluorescence (HTRF) assay
# Type: biochemical
# setup_conditions: 10 μM (values without asterisk); read-out: FAK % inhib at 10 μM
outcome_measure: inhibition at 10 µM (%)
Give the number; % is assumed, so skip it.

Record summary for CS(=O)(=O)c1ccccc1S(=O)(=O)Nc1ccc2[nH]nc(-c3ccc(OCc4ccccc4)cc3)c2c1 [Example 209] : reported inhibition at 10 µM = 55

Record summary for CS(=O)(=O)c1ccccc1S(=O)(=O)Nc1ccc2[nH]nc(-c3cc(F)cc(F)c3)c2c1 [Example 102] : reported inhibition at 10 µM = 90

Record summary for CC(C)S(=O)(=O)Nc1ccc2[nH]nc(-c3ccccc3)c2c1 [Example 123] : reported inhibition at 10 µM = 30

Record summary for CS(=O)(=O)c1ccccc1S(=O)(=O)Nc1ccc2[nH]nc(CCc3ccc(Cl)cc3)c2c1 [Example 77] : reported inhibition at 10 µM = 73

Record summary for CS(=O)(=O)c1ccccc1S(=O)(=O)Nc1ccc2[nH]nc(-c3ccc(Br)cc3F)c2c1 [Example 212] : reported inhibition at 10 µM = 72

Record summary for CS(=O)(=O)c1ccccc1S(=O)(=O)Nc1ccc2[nH]nc(-c3ccc4[nH]ccc4c3)c2c1 [Example 104] : reported inhibition at 10 µM = 85

Record summary for O=S(=O)(Nc1ccc2[nH]nc(-c3ccccc3)c2c1)c1ccccc1F [Example 134] : reported inhibition at 10 µM = 67

Record summary for CS(=O)(=O)c1ccccc1S(=O)(=O)Nc1ccc2[nH]nc(-c3ccc4ccccc4c3)c2c1 [Example 73] : reported inhibition at 10 µM = 87

Record summary for CS(=O)(=O)c1ccccc1S(=O)(=O)Nc1ccc2[nH]nc(-c3cccc(C(=O)O)c3)c2c1 [Example 56] : reported inhibition at 10 µM = 81

Record summary for CS(=O)(=O)c1ccccc1S(=O)(=O)Nc1ccc2[nH]nc(-c3ccsc3)c2c1 [Example 51] : reported inhibition at 10 µM = 90

Record summary for O=S(=O)(Nc1ccc2[nH]nc(-c3cc4ccccc4[nH]3)c2c1)c1cccs1 [Example 87] : reported inhibition at 10 µM = 91
